This collection of values is drawn from paper PMC7024213.

target: collagenase type V; experiment: Collagenase inhibition assay (spectrofluorometric); assay type: biochemical; details: collagenase type V, MMP-2 fluorogenic substrate, 1% DMSO; 95% confidence interval in brackets; read-out: Collagenase Inhibition IC50 µM (CI 95 ±)
Kindly state IC50 for each of the entries shown.
Numbers only, in µM.

Field: example entries. Status: answers known.
COC1=C(NC[C@@H](C)O)C[C@](O)(CO)CC1=NCC(=O)O [Compound 5, aplysiapalythine A] ... 80.7
COC1=C(NCCC(=O)O)C[C@@](O)(CO)CC1=N[C@H](C(=O)O)[C@@H](C)O [Compound 12, bostrychine-F] ... 90

Next molecule, please.
Lookup: Please report the recorded IC50 for CNC1=C(OC)C(=N[C@H](C(=O)O)[C@@H](C)O)C[C@](O)(CO)C1 [Compound 3, mycosporine-methylamine-threonine] .
Found: 250

---

target: collagenase type V; test: Collagenase inhibition assay (spectrofluorometric); assay type: biochemical; settings: collagenase type V, MMP-2 fluorogenic substrate, 1% DMSO; 95% confidence interval in brackets; read-out: Collagenase Inhibition IC50 µM (CI 95 ±)
Kindly state IC50 for each of the entries shown.
Answers are plain numbers, in µM.

O=C(O[C@@H]1Cc2c(O)cc(O)cc2O[C@@H]1c1cc(O)c(O)c(O)c1)c1cc(O)c(O)c(O)c1 [Epigallocatechingalleate, reference compound] ... 46.6
COC1=C(N[C@@H](C)C(=O)O)C[C@](O)(CO)CC1=NCC(=O)O ... 158

Next molecule, please.
Lookup: Fill in the recorded IC50 for this molecule, with collagenase type V as test system: "COC1=C(NC[C@@H](C)O)C[C@@](O)(CO)CC1=N[C@@H](CCC(=O)O)C(=O)O"
Found: 163

---

tested on: pentosidine-like AGEs; experiment: Inhibition of advanced glycation end products (AGEs) formation, BSA/D-ribose fluorescence assay; format: biochemical; settings: BSA 10 mg/mL, D-ribose 0.5 M, 37 °C, 24 h
pIC50: −log10 of the molar value.
Is pIC50 at least 4? Then Met. If not, Not met.

Use the examples below as a reference point.
N=C(N)NN [Aminoguanidine, reference compound] ... Not met
CNC1=C(OC)C(=N[C@H](C(=O)O)[C@@H](C)O)C[C@](O)(CO)C1 [Compound 3, mycosporine-methylamine-threonine] ... Not met
COC1=C(N[C@@H](C)C(=O)O)C[C@](O)(CO)CC1=NCC(=O)O [Compound 4, mycosporine-alanine-glycine] ... Met
COC1=C(NCCC(=O)O)C[C@@](O)(CO)CC1=N[C@H](C(=O)O)[C@@H](C)O [Compound 12, bostrychine-F] ... Not met
COC1=C(NC[C@@H](C)O)C[C@](O)(CO)CC1=NCC(=O)O [Compound 5, aplysiapalythine A] ... Not met

Kindly consider the entry below.
Lookup: State whether the measured pIC50 reaches 4, counting equality as reaching it, for COC1=C(NC[C@@H](C)O)C[C@@](O)(CO)CC1=N[C@@H](CCC(=O)O)C(=O)O [Compound 11, bostrychine-E]
Found: Not met

---

target: collagenase type V; assay: Collagenase inhibition assay (spectrofluorometric); type: biochemical; conditions: collagenase type V, MMP-2 fluorogenic substrate, 1% DMSO; 95% confidence interval in brackets; read-out: Collagenase Inhibition IC50 µM (CI 95 ±)
Where a name gives a salt, the structure may show the parent alone.
MEASURED_PARAMETER: IC50 (µM)
Give bare numbers, in µM.

Field: example entries. Status: answers known.
COC1=C(N[C@H](C(=O)O)[C@@H](C)O)C[C@](O)(CO)CC1=N[C@@H](CCC(N)=O)C(=O)O ... 104
COC1=C(N[C@H](C(=O)O)[C@@H](C)O)C[C@](O)(CO)CC1=N[C@@H](CCC(=O)O)C(=O)O ... 118
COC1=C(NCCO)C[C@](O)(CO)CC1=NCC(=O)O ... 70.9

Next compound, please.
Lookup: Please report the recorded IC50 for CC(C)C[C@H](NP(=O)(O)O[C@@H]1O[C@@H](C)[C@H](O)[C@@H](O)[C@H]1O)C(=O)N[C@@H](Cc1c[nH]c2ccccc12)C(=O)O [Phosphoramidon, phosphoramidon disodium salt, reference compound] .
Found: 1.9
